- system: UniProt:Q12852
- Sequence (Q12852 1-520): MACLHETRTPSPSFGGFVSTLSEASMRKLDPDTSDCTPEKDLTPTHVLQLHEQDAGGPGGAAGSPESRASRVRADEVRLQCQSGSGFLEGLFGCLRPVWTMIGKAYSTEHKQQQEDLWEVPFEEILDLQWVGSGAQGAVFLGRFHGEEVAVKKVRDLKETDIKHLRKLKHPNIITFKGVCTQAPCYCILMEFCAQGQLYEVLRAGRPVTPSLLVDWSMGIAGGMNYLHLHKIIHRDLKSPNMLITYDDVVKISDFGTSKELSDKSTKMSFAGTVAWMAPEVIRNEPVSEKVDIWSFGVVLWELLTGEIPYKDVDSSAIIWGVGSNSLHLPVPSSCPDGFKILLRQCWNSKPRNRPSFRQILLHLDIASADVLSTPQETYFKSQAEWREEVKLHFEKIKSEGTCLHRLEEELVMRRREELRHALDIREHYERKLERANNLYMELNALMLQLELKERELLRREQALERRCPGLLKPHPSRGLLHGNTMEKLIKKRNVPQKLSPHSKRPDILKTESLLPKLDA
- cond: read-out: DLK (Ki) μM; TR-FRET; 5 nM GST-tagged DLK (catalytic domain aa 1-520), 40 nM HIS-MKK4 K131M substrate, 30 μM ATP, 60 minutes
endpoint: Ki (µM)

Use these answered entries as a reference point.
compound | Ki (µM)
COc1cc(-c2cc([C@H]3[C@@H]4CN(C5COC5)C[C@@H]43)n(C3CCCC3)n2)cnc1N | 0.035
Nc1ncc(-c2cc([C@H]3[C@@H]4CN(C5COC5)C[C@@H]43)n(C3CCCC3)n2)cc1OC(F)F | 0.0074
CC(C)n1nc(-c2cnc3[nH]cc(F)c3c2)cc1C1CCN(C2COC2)CC1 | 0.096

[P] Nc1ncc(-c2cc([C@H]3[C@@H]4CN(C5COC5)C[C@@H]43)n(CC3CC3)n2)cc1C1CC1
[Q] CC(C)Oc1cc(-c2cc(C3CCN(C4COC4)CC3)n(C3CCCC3)n2)cnc1N
[R] CCOc1cc(-c2cc(C3CCN(C4COC4)CC3)n(C(C)C)n2)cnc1N
[S] FC1(F)CCC(n2nc(-c3cnc4[nH]cc(C(F)(F)F)c4c3)cc2C2CN(C3COC3)C2)C1 (centres unmarked)
Task item: Ranking field: Ki; order: falling. # format: label list in the order the request specifies
Reply: R, Q, P, S
(R: 0.39 µM, Q: 0.12 µM, P: 0.021 µM, S: 0.013 µM)

----------
- system: UniProtKB Q12852
- cond: read-out: DLK (Ki) μM; TR-FRET; 5 nM GST-tagged DLK (catalytic domain aa 1-520), 40 nM HIS-MKK4 K131M substrate, 30 μM ATP, 60 minutes
endpoint: Ki (µM)

line-notation | observed
CC(C)n1nc(-c2cnc(N)c(C(C)(F)F)c2)cc1[C@H]1[C@@H]2CN(C3COC3)C[C@@H]21 | 0.0092
Nc1ncc(-c2cc(C3CCOCC3)n(C3CC(F)(F)C3)n2)cc1Cl | 0.46
CC(C)Oc1cc(-c2cc([C@H]3[C@@H]4CN(C5COC5)C[C@@H]43)n(C(C)C)n2)cnc1N | 0.014
CC(=O)N1CCC(c2cc(-c3cnc4[nH]cc(C(F)(F)F)c4c3)nn2C(C)C)CC1 | 0.0037
COc1cc(-c2cc(C3CCN(C4COC4)CC3)n(C(C)C)n2)cnc1N | 0.14
N#Cc1cc(-c2cc(C3CCN(C4COC4)CC3)n(C3CCCC3)n2)cnc1N | 0.17

[P] FC1(F)CC(n2nc(-c3cnc4[nH]cc(C(F)(F)F)c4c3)cc2C2CCOCC2)C1
[Q] CC(C)n1nc(-c2cnc3[nH]cc(C(F)(F)F)c3c2)cc1C1CN(C2COC2)C1
[R] Nc1ncc(-c2cc([C@H]3[C@@H]4CN(C5COC5)C[C@@H]43)n(CC3CC3)n2)cc1Cl
[S] CC(=O)N1CC(c2cc(-c3cnc4[nH]cc(C(F)(F)F)c4c3)nn2C(C)C)C1
[T] Nc1ncc(-c2cc([C@H]3[C@@H]4CN(C5COC5)C[C@@H]43)n(C3CCC3)n2)cc1C(F)(F)F
Task item: List these items ordered by Ki, big to small. Quick reminder: the answer is the labels in the order asked.
Reply: P, R, S, T, Q
